// values below are reported pIC50
Tested on: HTT mRNA
Experiment: RT-qPCR splicing assay, HTT mRNA canonical (CJ) and alternative (AJ) junction
Assay type: cell-based, human
Settings: Homo sapiens, HTT canonical junction mRNA, RT-qPCR; read-out: HTT CJ (decrease in CJ mRNA levels, IC50)
pIC50: −log10 of the molar value.

compound | result
Cc1nc2c(F)c(O)c(-c3ccc4nc(N5CC[C@@H](NC(C)C)C5)ccc4n3)cc2o1 (single isomer, unassigned) [Compound 329] | > 7.00
Cc1nc2cc(O)c(-c3ccc4nc(N5CC[C@H](N[C@H]6C[C@H](F)C6)C5)ccc4n3)cc2o1 [Compound 350] | > 7.00
CNC(=O)c1nc(-c2cc3cn(C)nc3c(F)c2O)nc2ccc(N3CCNC4(CC4)C3)cc12 [Compound 728] | 6.00 to 7.00

Please find the next compound below.
Entry Cc1nc2cc(O)c(-c3ccc4nc(N5CCNCC5)ccc4n3)cc2o1 [Compound 408] ; pIC50 = 6.00 to 7.00

====

Overview of recorded IC50 for various molecules
Test system: MYB
Experiment: HiBiT protein abundance assay, MYB (K562 HiBiT knock-in)
Format: cell-based, human
Settings: HiBiT knock-in K562 cells, 24 hours, top dose 10 μM

Answered cases to consult:
molecule | IC50
Cc1nc2c(F)c(O)c(-c3ccc4nc(N5CCC(NC(C)C)C5)ccc4n3)cc2o1 (stereo not drawn) | < 100 nM
Cc1nc2c(F)c(O)c(-c3ccc4nc(N5CC[C@@H](N[C@H]6C[C@@H](F)C6)C5)ccc4n3)cc2o1 (stereo in doubt) | < 100 nM
Cc1nc2c(C)c(O)c(-c3ccc4nc(N5CCC(NC6(C)CC6)C5)ccc4n3)cc2o1 (stereo not drawn) | < 100 nM
Cc1cc2nc(-c3ccc4nc(N5CCC(NC(C)(C)C)C5)ccc4n3)cn2c(C)n1 (stereo not drawn) | 1000 to 10000 nM
Cn1cc2cc(-c3ccc4nc(N5CC[C@H](NC6CC6)C5)ccc4n3)c(O)c(F)c2n1 (single isomer, unassigned) | < 100 nM

With those in mind, consider the next molecule.
Sample Cn1cc2cc(-c3ccc4nc(N5CC[C@@H](NCC(F)(F)F)C5)ccc4n3)c(O)cc2n1 , system: MYB. Its IC50 is > 10000 nM

====

Measured IC50 accompanies every entry in the list below.
System: HTT mRNA
Assay: RT-qPCR splicing assay, HTT mRNA canonical (CJ) and alternative (AJ) junction
Format: cell-based, human
Details: Homo sapiens, HTT canonical junction mRNA, RT-qPCR; read-out: HTT CJ (decrease in CJ mRNA levels, IC50)

Worked cases, answers included:
compound | IC50
C[C@@H]1CN(c2ccc3nc(-c4cc5cn(C)nc5c(F)c4O)nc(C(N)=O)c3c2)C[C@H](C)N1 | 1000 to 10000 nM
c1c[nH]c(-c2ccc3nc(C4CCNCC4)ccc3n2)n1 | > 10000 nM
Cc1nc2cc(O)c(-c3ccc4nc(N5CC[C@H](NC6(CF)CC6)C5)ccc4n3)cc2o1 (single isomer, unassigned) | < 100 nM
Cc1c(O)c(-c2ccc3nc(N4CCC(NCC5CC5)C4)ccc3n2)cc2cn(C)nc12 (stereo not shown) | < 100 nM
Cc1c(O)c(-c2ccc3nc(N4CC[C@@H](NC5(C)CC5)C4)ccc3n2)cc2cn(C)nc12 | < 100 nM

The recorded IC50 for Cc1c(O)c(-c2nc(C(=O)N(C)C)c3cc(N4CCNCC4)ccc3n2)cc2cn(C)nc12 is 1000 to 10000 nM

// IC50 lookup, compound = CCN[C@@H]1CCN(c2ccc3nc(-c4cc5cn(C)nc5cc4O)ccc3n2)C1 , result: < 100 nM

The compound COc1cc2nc(C3COC3)oc2cc1-c1ccc2nc(N3CCC(NC(C)(C)C)C3)ccc2n1 (stereo not shown) showed IC50 equal to 1000 to 10000 nM

Given item Cn1cc2cc(-c3ccc4nc(C5CCNCC5)ccc4n3)c(C#N)cc2n1 , the value recorded as its IC50 is 1000 to 10000 nM

The recorded IC50 for Cn1cc2cc(-c3ccc4nc(OC5CNC5)ccc4n3)c(O)cc2n1 is 1000 to 10000 nM
